biological target: human CD33 on primary human monocyte-derived dendritic cells (human, UniProt P20138 18-364); assay: cell-based or functional assay
Sequence (P20138 18-364): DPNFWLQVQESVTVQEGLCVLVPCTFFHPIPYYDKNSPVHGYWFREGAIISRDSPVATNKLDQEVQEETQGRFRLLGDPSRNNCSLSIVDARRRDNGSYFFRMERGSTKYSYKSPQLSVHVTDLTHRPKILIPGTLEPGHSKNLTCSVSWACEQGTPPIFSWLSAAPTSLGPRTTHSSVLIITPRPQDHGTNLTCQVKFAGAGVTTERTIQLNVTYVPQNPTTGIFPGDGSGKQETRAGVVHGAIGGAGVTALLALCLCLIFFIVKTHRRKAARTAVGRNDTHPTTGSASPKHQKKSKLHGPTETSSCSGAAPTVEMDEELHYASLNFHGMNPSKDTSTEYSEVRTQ
measure: Maximal Downregulation (% CD33 remaining) (%)
Answers are plain numbers, in %.

Give measured Maximal Downregulation (% CD33 remaining) for every item shown.
1. AB-14.9 (antibody, V domains shown) VH: QVQLVQSGAEVKKPGASVKVSCKASGYTFTDYNYHWVRQAPGQGLEWIGFIYPSNGITGYAQKFQGRVTMTVDTSTSTVYMELSSLRSEDTAVYYCARSDVDYFDYWGQGTLVTVSS VL: GIQMTQSPSSLSASVGDRVTITCRASQSVGTSTYSYMHWYQQKPGKAPKLLIKYAVNLESGVPSRFSGSGSGTDFTLTISSLQPEDFATYYCQHSWEIPLTFGQGTKLEIK
2. AB-14.7 (antibody, V domains shown) VH: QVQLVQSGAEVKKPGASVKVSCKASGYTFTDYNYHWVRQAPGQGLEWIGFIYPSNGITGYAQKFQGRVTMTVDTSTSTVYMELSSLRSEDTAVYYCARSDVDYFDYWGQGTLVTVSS VL: DIQMTQSPSSLSASVGDRVTITCRASQSVGTSTYSYMHWYQQKPGKAPKLLIKYASNLESGVPSRFSGSGSGTDFTLTISSLQPEDFATYYCQHSWEIPLTFGQGTKLEIK
3. AB-14.3 (antibody, V domains shown) VH: QVQLVQSGAEVKKPGASVKVSCKASGYTFTDYNYHWVRQAPGQGLEWIGFIYPSNGITGSAQKFQGRVTMTVDTSTSTVYMELSSLRSEDTAVYYCARSDVDYFDYWGQGTLVTVSS VL: DIQMTQSPSSLSASVGDRVTITCRASQDVSTSTYSYMHWYQQKPGKAPKLLIKYVSNLESGVPSRFSGSGSGTDFTLTISSLQPEDFATYYCQHSWEIPLTFGQGTKLEIK
4. AB-14.10 (antibody, V domains shown) VH: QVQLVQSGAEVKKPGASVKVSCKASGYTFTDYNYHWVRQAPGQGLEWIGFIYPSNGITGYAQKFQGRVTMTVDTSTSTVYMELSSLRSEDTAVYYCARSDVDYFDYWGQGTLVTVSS VL: DIQMTQSPSSLSASVGDRVTITCRASQSVSASTYSYMHWYQQKPGKAPKLLIKYASNLESGVPSRFSGSGSGTDFTLTISSLQPEDLATYYCQHSWEIPLTFGQGTKLEIK
5. AB-14.4 (antibody, V domains shown) VH: QVQLVQSGAEVKKPGASVKVSCKASGYTFTDYNYHWVRQAPGQGLEWIGFIYPSNGITGYAQKFQGRVTMTVDTSTSTVYMELSSLRSEDTAVYYCADSTVDYFDYWGQGTLVTVSS VL: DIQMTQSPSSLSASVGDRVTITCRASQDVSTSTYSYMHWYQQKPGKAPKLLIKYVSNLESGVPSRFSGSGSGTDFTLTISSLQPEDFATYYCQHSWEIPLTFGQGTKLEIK

Result:
1. 26.1
2. 23.4
3. 25.4
4. 20.9
5. 27.6

Give measured Maximal Downregulation (% CD33 remaining) for every item shown.
1. AB-14.8 (antibody, V domains shown) VH: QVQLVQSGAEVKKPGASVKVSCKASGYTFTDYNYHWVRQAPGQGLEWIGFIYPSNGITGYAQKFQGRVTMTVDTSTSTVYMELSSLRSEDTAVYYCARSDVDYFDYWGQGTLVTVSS VL: DIQMTQSPSSLPASVGDRVTITCRASQSVGTSTYSYMHWYQQKPGKAPKLLIKYASNLGSGVPSRFSGSGSGTDFTLTISSLQPEDFATYYCQHSWEIPLTFGQGTKLEIK
2. AB-14.5 (antibody, V domains shown) VH: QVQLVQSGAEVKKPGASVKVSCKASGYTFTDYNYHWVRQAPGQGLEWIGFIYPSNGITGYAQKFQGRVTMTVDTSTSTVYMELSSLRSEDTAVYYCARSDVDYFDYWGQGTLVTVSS VL: DIQMTQSPSSLSASVGDRVTITCRASQDVSTSTYSYMHWYQRKPGKAPKLLIKYASNLESGVPSRFSGSGSGTDFTLTISSLQPEDFATYYCQHSWEIPLTFGQGTKLEIK
3. AB-14.1 (antibody, V domains shown) VH: QVQLVQSGAEVKKPGASVKVSCKASGATFTDYNFHWVRQAPGQGLEWIGFIYPSNGITGYAQDFQGRVTMTVDTSTSTVYMELSSLRSEDTAVYYCARSDVDYFDYWGQGTLVTVSS VL: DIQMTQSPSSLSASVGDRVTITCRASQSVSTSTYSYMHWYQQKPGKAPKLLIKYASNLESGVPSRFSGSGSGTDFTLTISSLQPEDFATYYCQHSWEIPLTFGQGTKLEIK
4. AB-14.11 (antibody, V domains shown) VH: QVQLVQSGAEVKKPGASVKVSCKASGYTFTDYNYHWVRQAPGQGLEWIGFIYPSNGITGYAQKFQGRVTMTVDTSTSTVYMELSSLRSEDTAVYYCARSSVDYFDYWGQGTLVTVSS VL: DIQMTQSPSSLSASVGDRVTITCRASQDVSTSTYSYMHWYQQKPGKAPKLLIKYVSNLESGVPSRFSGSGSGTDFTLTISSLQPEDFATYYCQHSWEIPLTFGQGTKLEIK

Result:
1: 21.2; 2: 26.4; 3: 18.6; 4: 27.5

Give measured Maximal Downregulation (% CD33 remaining) for every item shown.
1. AB-H14 (antibody, V domains shown, Humanized variant of murine 2F5.1) VH: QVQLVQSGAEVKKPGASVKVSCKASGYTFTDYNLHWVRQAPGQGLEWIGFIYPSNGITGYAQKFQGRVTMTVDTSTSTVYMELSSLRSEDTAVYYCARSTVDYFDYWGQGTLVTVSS VL: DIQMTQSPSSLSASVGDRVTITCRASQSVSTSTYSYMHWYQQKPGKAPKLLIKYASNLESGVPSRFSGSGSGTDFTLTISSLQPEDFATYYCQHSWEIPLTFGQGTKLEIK
2. AB-14.6 (antibody, V domains shown) VH: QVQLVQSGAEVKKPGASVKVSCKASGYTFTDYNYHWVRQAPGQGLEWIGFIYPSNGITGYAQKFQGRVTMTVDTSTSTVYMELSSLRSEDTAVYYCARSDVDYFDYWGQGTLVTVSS VL: DIQMTQSPSSLSASVGDRVTITCRASQSVGTSTYSYMHWYQQKPGKAPKLLIKYASALESGVPSRFSGSGSGTDFTLTISSLQPEDFATYYCQHSWEIPLTFGQGTKLEIK

Result:
1: 15; 2: 24

The reported measurements were obtained from patent US20210139581A1.
